Cited source: patent US20210054094A1

molecular target: human GPRC5D (human, UniProt Q9NZD1 1-345); assay: cell-based or functional assay
Sequence (Q9NZD1 whole entry): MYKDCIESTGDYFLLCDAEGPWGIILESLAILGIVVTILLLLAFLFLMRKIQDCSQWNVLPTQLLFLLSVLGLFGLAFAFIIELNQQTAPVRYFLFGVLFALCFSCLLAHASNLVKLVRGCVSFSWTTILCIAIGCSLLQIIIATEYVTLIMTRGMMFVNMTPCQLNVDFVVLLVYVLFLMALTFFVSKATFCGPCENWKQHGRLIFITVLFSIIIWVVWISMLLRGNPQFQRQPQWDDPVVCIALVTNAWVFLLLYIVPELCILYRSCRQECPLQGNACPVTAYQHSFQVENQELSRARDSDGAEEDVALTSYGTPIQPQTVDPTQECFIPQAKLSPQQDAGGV
Binary classification by CAR-J2 EC50 (PGLALA-CAR-J activation, L363 target cells), with 0.006 µg/mL as an inclusive lower bound for class 1; all other cases are class 0.

binder="P1AE5759 (antibody, V domains shown) VH: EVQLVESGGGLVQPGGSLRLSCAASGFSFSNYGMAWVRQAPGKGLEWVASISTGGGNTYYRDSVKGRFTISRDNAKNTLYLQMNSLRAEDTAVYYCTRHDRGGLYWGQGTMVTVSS VL: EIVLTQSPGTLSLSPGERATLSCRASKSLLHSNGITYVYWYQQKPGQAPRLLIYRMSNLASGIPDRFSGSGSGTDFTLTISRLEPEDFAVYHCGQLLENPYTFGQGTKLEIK" class="class 1"
binder="P1AE5735 (antibody, V domains shown) VH: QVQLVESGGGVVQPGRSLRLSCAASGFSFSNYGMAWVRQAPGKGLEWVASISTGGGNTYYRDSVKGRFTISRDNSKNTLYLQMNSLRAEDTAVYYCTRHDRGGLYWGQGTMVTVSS VL: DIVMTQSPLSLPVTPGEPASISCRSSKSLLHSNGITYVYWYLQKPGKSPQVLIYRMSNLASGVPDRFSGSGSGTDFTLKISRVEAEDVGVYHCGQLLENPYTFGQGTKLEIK" class="class 1"
binder="P1AE5751 (antibody, V domains shown) VH: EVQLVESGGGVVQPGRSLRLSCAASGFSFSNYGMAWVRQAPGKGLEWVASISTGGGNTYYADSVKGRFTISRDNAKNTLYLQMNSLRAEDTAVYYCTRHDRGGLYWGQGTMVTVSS VL: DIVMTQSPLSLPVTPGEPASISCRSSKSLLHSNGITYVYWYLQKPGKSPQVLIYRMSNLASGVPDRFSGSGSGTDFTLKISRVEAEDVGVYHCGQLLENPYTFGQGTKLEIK" class="class 1"
binder="P1AE5736 (antibody, V domains shown) VH: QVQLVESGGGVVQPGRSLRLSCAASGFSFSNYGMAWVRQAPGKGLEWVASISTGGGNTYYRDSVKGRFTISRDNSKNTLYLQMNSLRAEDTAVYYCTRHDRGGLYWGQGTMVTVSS VL: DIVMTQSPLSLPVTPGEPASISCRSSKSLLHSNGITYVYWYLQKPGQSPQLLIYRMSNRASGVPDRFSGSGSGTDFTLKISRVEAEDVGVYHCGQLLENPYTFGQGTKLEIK" class="class 0"
binder="P1AE5747 (antibody, V domains shown) VH: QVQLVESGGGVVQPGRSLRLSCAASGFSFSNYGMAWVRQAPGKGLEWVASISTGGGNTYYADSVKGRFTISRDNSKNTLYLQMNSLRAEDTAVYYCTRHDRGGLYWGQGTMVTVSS VL: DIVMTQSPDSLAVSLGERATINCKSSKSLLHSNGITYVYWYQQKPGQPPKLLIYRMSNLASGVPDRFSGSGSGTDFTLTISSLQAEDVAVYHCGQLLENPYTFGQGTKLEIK" class="class 1"
